System: cat fleas (Ctenocephalides felis)
Experiment: Control of cat fleas on treated dogs (Biological Examples 1-3)
Format: in vivo
Details: dogs, 10 mg/kg, 30 mg/mL in 1:1 dimethyl sulfoxide/corn oil, 1 day post-treatment, versus placebo group
Assay Endpoint: % Control 1 DPT (Fleas/Ticks): Fleas (%)
Please respond with the number in % and leave the unit unwritten.

[in] Name the recorded % Control 1 DPT (Fleas/Ticks): Fleas for CCOCC(=O)N(CC1CC1)c1c(S(=O)(=O)C(F)(F)F)c(C#N)nn1-c1c(Cl)cc(C(F)(F)F)cc1Cl [Compound 28-5] .
[out] 100

[in] Follow-up entry: CN(C(=O)c1ccc(C(F)(F)F)cc1)c1c(SC(F)(F)F)c(C#N)nn1-c1c(Cl)cc(C(F)(F)F)cc1Cl [Compound 127-1]
[out] 100

[in] Okay, and CCCN(C(=O)OC)c1c(SC(F)(F)F)c(C#N)nn1-c1c(Cl)cc(C(F)(F)F)cc1Cl [Compound 75-1] ?
[out] 89

[in] What about CCCOC(=O)N(C)c1c(SC(F)(F)F)c(C#N)nn1-c1c(Cl)cc(C(F)(F)F)cc1Cl [Compound 70-1] ?
[out] 99

[in] Consider next the molecule CCOC(C)C(=O)N(C)c1c(SC(F)(F)F)c(C#N)nn1-c1c(Cl)cc(C(F)(F)F)cc1Cl (racemic) [Compound 116-1] in the same way.
[out] 79

[in] Now this one: CCOC(=O)N(C)c1c(SC(F)(F)F)c(C#N)nn1-c1c(Cl)cc(C(F)(F)F)cc1Cl [Compound 68-1]
[out] 100

[in] And for CCOC(=O)N(c1c(SC(F)(F)F)c(C#N)nn1-c1c(Cl)cc(C(F)(F)F)cc1Cl)C(C)C [Compound 80-1] ?
[out] 100

###

Measured % Control 1 DPT (Fleas/Ticks): Fleas values are reported for all entries that follow.
Tested on: cat fleas (Ctenocephalides felis)
Experiment: Control of cat fleas on treated dogs (Biological Examples 1-3)
Assay type: in vivo
Settings: dogs, 10 mg/kg, 30 mg/mL in 1:1 dimethyl sulfoxide/corn oil, 1 day post-treatment, versus placebo group
Kindly answer with a numeric value in %, unit omitted.

// below: answered compounds
N#Cc1nn(-c2c(Cl)cc(C(F)(F)F)cc2Cl)c(N=CNCC(F)(F)F)c1SC(F)(F)F [Compound 211-1]    99
N#Cc1nn(-c2c(Cl)cc(C(F)(F)F)cc2Cl)c(N(CC2CC2)C(=O)C2CCCO2)c1SC(F)(F)F (stereo not shown) [Compound 7-7]    29
CCC(=O)N(C)c1c(SC(F)(F)F)c(C#N)nn1-c1c(Cl)cc(C(F)(F)F)cc1Cl [Compound 123-1]    74
CC(=O)N(C)c1c(SC(F)(F)F)c(C#N)nn1-c1c(Cl)cc(C(F)(F)F)cc1Cl [Compound 1-1]    91
COCC(=O)N(C)c1c([S+]([O-])C(F)(F)F)c(C#N)nn1-c1c(Cl)cc(C(F)(F)F)cc1Cl (stereo not shown) [Compound 2-3]    100
CCOC(=O)N(CC)c1c(SC(F)(F)F)c(C#N)nn1-c1c(Cl)cc(C(F)(F)F)cc1Cl [Compound 72-1]    100
CCCN(C(=O)COCC)c1c(SC(F)(F)F)c(C#N)nn1-c1c(Cl)cc(C(F)(F)F)cc1Cl [Compound 13-1]    99
COC(=O)N(c1c(SC(F)(F)F)c(C#N)nn1-c1c(Cl)cc(C(F)(F)F)cc1Cl)C(C)C [Compound 79-1]    96

Now for another entry.
[in] Request the reported % Control 1 DPT (Fleas/Ticks): Fleas associated with N#Cc1nn(-c2c(Cl)cc(C(F)(F)F)cc2Cl)c(N=CNCC(F)(F)F)c1SC(F)(F)F.O=C(O)CC(O)(CC(=O)O)C(=O)O [Compound 233]
[out] 100

###

Experiment: Emesis in treated dogs
Assay type: in vivo
Details: dogs, 10 mg/kg
Assay Endpoint: % Emesis (%)
Field format: number, assumed %, no unit text.

In the examples that follow, each entry is paired with its recorded % Emesis.
CCOCC(=O)N(C)c1c([S+]([O-])C(F)(F)F)c(C#N)nn1-c1c(Cl)cc(C(F)(F)F)cc1Cl (racemic)    0
CCCN(C(=O)COCC)c1c(SC(F)(F)F)c(C#N)nn1-c1c(Cl)cc(C(F)(F)F)cc1Cl    0
CCN(C(=O)OC)c1c(SC(F)(F)F)c(C#N)nn1-c1c(Cl)cc(C(F)(F)F)cc1Cl    0
CN(C)C=Nc1c(SC(F)(F)F)c(C#N)nn1-c1c(Cl)cc(C(F)(F)F)cc1Cl    33
CCOC(C)C(=O)N(C)c1c(SC(F)(F)F)c(C#N)nn1-c1c(Cl)cc(C(F)(F)F)cc1Cl (racemic)    0
N#Cc1nn(-c2c(Cl)cc(C(F)(F)F)cc2Cl)c(N=CNCC(F)(F)F)c1SC(F)(F)F    0

Field: next compound
[in] What value of % Emesis has been recorded for this entry: `COC(=O)N(C)c1c(SC(F)(F)F)c(C#N)nn1-c1c(Cl)cc(C(F)(F)F)cc1Cl`
[out] 33

###

Recorded % Emesis, one value per entry.
Assay: Emesis in treated cats
Format: in vivo
Settings: cats, 20 mg/kg
Give the value, in units of %, as a plain number.

CN(C(=O)c1ccco1)c1c(SC(F)(F)F)c(C#N)nn1-c1c(Cl)cc(C(F)(F)F)cc1Cl    25
N#Cc1nn(-c2c(Cl)cc(C(F)(F)F)cc2Cl)c(N(C(=O)C2CCCO2)C2CC2)c1S(=O)(=O)C(F)(F)F (racemic)    0
CCOC(C)(C)C(=O)N(C)c1c(SC(F)(F)F)c(C#N)nn1-c1c(Cl)cc(C(F)(F)F)cc1Cl    0

Shift focus to the following entry.
[in] Name the recorded % Emesis for `CCCOC(=O)N(C)c1c(SC(F)(F)F)c(C#N)nn1-c1c(Cl)cc(C(F)(F)F)cc1Cl` .
[out] 0

###

Test system: cat fleas (Ctenocephalides felis)
Test: Control of cat fleas on treated dogs (Biological Examples 1-3)
Type: in vivo
Conditions: dogs, 10 mg/kg, 30 mg/mL in 1:1 dimethyl sulfoxide/corn oil, 1 day post-treatment, versus placebo group
Below: a set of entries, each annotated with reported % Control 1 DPT (Fleas/Ticks): Fleas.
Reply numerically in %, unit not repeated.

Look over these answered cases.
COCC(=O)N(C)c1c(S(=O)(=O)C(F)(F)F)c(C#N)nn1-c1c(Cl)cc(C(F)(F)F)cc1Cl [Compound 2-5]    100
CC(=O)OCC(=O)N(C)c1c(SC(F)(F)F)c(C#N)nn1-c1c(Cl)cc(C(F)(F)F)cc1Cl [Compound 36-1]    71
CCOCC(=O)N(C)c1c(SC(F)(F)F)c(C#N)nn1-c1c(Cl)cc(C(F)(F)F)cc1Cl [Compound 3-1]    100

[in] Value wanted: % Control 1 DPT (Fleas/Ticks): Fleas (cat fleas (Ctenocephalides felis)) of entry CC(=O)O.N#Cc1nn(-c2c(Cl)cc(C(F)(F)F)cc2Cl)c(N=CNCC(F)(F)F)c1SC(F)(F)F [Compound 232]
[out] 99

[in] Likewise for N#Cc1nn(-c2c(Cl)cc(C(F)(F)F)cc2Cl)c(N(C(=O)C2CCCO2)C2CC2)c1S(=O)(=O)C(F)(F)F (racemic) [Compound 6-11] ?
[out] 100

[in] Param item: CN(C)C=Nc1c(SC(F)(F)F)c(C#N)nn1-c1c(Cl)cc(C(F)(F)F)cc1Cl [Compound 219]
[out] 97

###

Tested on: cat fleas (Ctenocephalides felis)
Assay: Control of cat fleas on treated dogs (Biological Examples 1-3)
Assay type: in vivo
Details: dogs, 10 mg/kg, 30 mg/mL in 1:1 dimethyl sulfoxide/corn oil, 1 day post-treatment, versus placebo group
Assay Endpoint: % Control 1 DPT (Fleas/Ticks): Fleas (%)
Give just the number in %; leave the unit off.

Use the examples below as a reference point.
CC(C)OC(=O)N(C)c1c(SC(F)(F)F)c(C#N)nn1-c1c(Cl)cc(C(F)(F)F)cc1Cl    98
N#Cc1nn(-c2c(Cl)cc(C(F)(F)F)cc2Cl)c(N=CNCc2ccccc2)c1SC(F)(F)F    38

[in] What value of % Control 1 DPT (Fleas/Ticks): Fleas has been reported for the following molecule? `CCCOC(=O)N(CC)c1c(SC(F)(F)F)c(C#N)nn1-c1c(Cl)cc(C(F)(F)F)cc1Cl`
[out] 99

[in] Queued: `CC(C)OC(=O)N(c1c(SC(F)(F)F)c(C#N)nn1-c1c(Cl)cc(C(F)(F)F)cc1Cl)C(C)C`
[out] 76

[in] `CCCN(C(=O)OCC)c1c(SC(F)(F)F)c(C#N)nn1-c1c(Cl)cc(C(F)(F)F)cc1Cl` ?
[out] 100

###

Collected % Control 1 DPT (Fleas/Ticks): Fleas values appear next to each entry.
Tested on: cat fleas (Ctenocephalides felis)
Experiment: Control of cat fleas on treated dogs (Biological Examples 1-3)
Type: in vivo
Details: dogs, 10 mg/kg, 30 mg/mL in 1:1 dimethyl sulfoxide/corn oil, 1 day post-treatment, versus placebo group
Quick note: give the figure in %, leave out the unit.

Example molecules with recorded % Control 1 DPT (Fleas/Ticks): Fleas:
CCOCC(=O)N(c1c(SC(F)(F)F)c(C#N)nn1-c1c(Cl)cc(C(F)(F)F)cc1Cl)C1CC1    99
CN(C(=O)C1CCCO1)c1c(SC(F)(F)F)c(C#N)nn1-c1c(Cl)cc(C(F)(F)F)cc1Cl (racemic)    100
COCCOCC(=O)N(C)c1c(S(=O)(=O)C(F)(F)F)c(C#N)nn1-c1c(Cl)cc(C(F)(F)F)cc1Cl    97
CCOCC(=O)N(C)c1c([S+]([O-])C(F)(F)F)c(C#N)nn1-c1c(Cl)cc(C(F)(F)F)cc1Cl (racemic)    100
CC(=O)N(C)c1c(S(=O)(=O)C(F)(F)F)c(C#N)nn1-c1c(Cl)cc(C(F)(F)F)cc1Cl    98

[in] % Control 1 DPT (Fleas/Ticks): Fleas for `N#Cc1nn(-c2c(Cl)cc(C(F)(F)F)cc2Cl)c(N=CNCC(F)(F)F)c1S(=O)(=O)C(F)(F)F` ?
[out] 100
